System: PqsR (pqsA promoter, PAO1-L mCTX::PpqsA-lux)
Test: Whole cell biosensor reporter assay, PAO1-L mCTX::PpqsA-lux
Type: cell-based, Pseudomonas aeruginosa
Details: Pseudomonas aeruginosa, PAO1, read-out: PAO1-L Remaining Activity %
Parameter activity at 10 µM: see the listing below.
Give the number; % is assumed, so skip it.

// worked examples, activity at 10 µM included
{"columns": ["compound", "u", "numeric-value"],
 "data": [
  ["CC(=O)N1N=C(c2ccc(Cl)cc2)CC1c1cccc(Nc2ccnc3cc(C(F)(F)F)ccc23)c1 (centres unmarked) [IIn]", "%", 97.8],
  ["CC(=O)N1N=C(c2ccc3c(c2)OCO3)CC1c1cccc(Nc2ccnc3cc(C(F)(F)F)ccc23)c1 (centres unmarked) [IIp]", "%", 71.6],
  ["CC(=O)N1N=C(c2ccccc2)CC1c1cccc(Nc2ccnc3cc(C(F)(F)F)ccc23)c1 (centres unmarked) [IIi]", "%", 26.1],
  ["COc1ccc(C2=NN(C=O)C(c3cccc(Nc4ccnc5cc(C(F)(F)F)ccc45)c3)C2)cc1 (centres unmarked) [Ik]", "%", 78.6],
  ["COc1cc(C2=NN(C(C)=O)C(c3cccc(Nc4ccnc5cc(C(F)(F)F)ccc45)c3)C2)cc(OC)c1OC (centres unmarked) [IIl]", "%", 86.1],
  ["CC(=O)N1N=C(c2ccc(C)cc2)CC1c1cccc(Nc2ccnc3cc(C(F)(F)F)ccc23)c1 (centres unmarked) [IIj]", "%", 97.3],
  ["O=CN1N=C(c2ccc(Br)cc2)CC1c1cccc(Nc2ccnc3cc(Cl)ccc23)c1 (centres unmarked) [Ig]", "%", 88.1]
]}

Consider the additional compound presented here.
Give me measured activity at 10 µM, please, for this compound: COc1cc(C2=NN(C=O)C(c3cccc(Nc4ccnc5cc(Cl)ccc45)c3)C2)cc(OC)c1OC (centres unmarked) [Id]
130
